- EXPERIMENTAL_SYSTEM: TJP2_1, Q9UDY2
- Sequence (Q9UDY2 24-128): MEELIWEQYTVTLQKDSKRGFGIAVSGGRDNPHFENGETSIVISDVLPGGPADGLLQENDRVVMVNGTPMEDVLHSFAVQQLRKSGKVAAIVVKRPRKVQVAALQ
- METHOD_SUMMARY: holdup assay
- Parameters: key: below the threshold = too weak to quantify, mostly under pKd 3.1 to 4
- TEST_PARAMETERS: plain residues with an end cap or a label only (N-terminal biotin on a linker: ado-ado)
PROPERTY: pKd

BINDER: FHSIKQSTAV [CRHR1, P34998]
pKd: 3.6
--
BINDER: VKQYADVEGF [HNRNPK, P61978;P61978-2]
pKd: below the threshold
--
BINDER: GSQSQVETEA [FKBP4, Q02790]
pKd: below the threshold
--
BINDER: WAKEKQHTRL [SLC17A1, Q14916]
pKd: 3.82
--
BINDER: LPPPESESKV [KCNJ9, Q92806]
pKd: below the threshold
--
BINDER: ADEMICITTL [CACNA1D, Q01668]
pKd: below the threshold

Just so you know, measured pKd for QKNKDREYYV [NRXN3, Q9HDB5] came out at 3.52

pKd for DFKHTKSFII [JAM2, P57087] is below the threshold

Item: EKPIDSETKM [SLC1A3, P43003] | pKd: below the threshold

response.value for KAEEKPPSKV [SCN4B, Q8IWT1] (field: pKd) = below the threshold

pKd for GNDPDRGTSI [GRID2, O43424] is below the threshold

Form field pKd, entry GDSSRKEYFI [GYPC, P04921] : below the threshold

Please fill in: pKd reported for PLPPEEESWV [GAS2L2, Q8NHY3] = 4.4

Documented pKd of MLPANYVEAI [NEB, P20929] : below the threshold

So, TKEIPNCTSV [SORCS3, Q9UPU3] ? Its pKd was below the threshold

The binder listed as SQDPKKPSRV [CBY2, Q8NA61] has a reported pKd of below the threshold
